system: Trypanosoma brucei rhodesiense; test: Antiparasitic activity against Trypanosoma brucei rhodesiense STIB 900 trypomastigote bloodstream form assessed as growth inhibition at 4.8 ug/ml after 72 hrs by resazurin dye-based fluorometric analysis relative to control; assay type: functional; settings: STIB 900, 72 h, read-out: GI
Hi, to clarify the labels: Condition met covers inhibition of growth at 4.8 µg/mL from 3% upward, Condition not met covers anything below 3%.

{"COMPOUND": "O=[N+]([O-])c1cccc(S(=O)(=O)n2ccc3ccccc32)c1", "DISCRETE LABEL": "Condition met"}
{"COMPOUND": "O=S(=O)(c1ccc(C(F)(F)F)cc1)n1ccc2ccccc21", "DISCRETE LABEL": "Condition not met"}
{"COMPOUND": "CC1Cc2ccccc2N1S(=O)(=O)c1ccc(F)cc1 (stereo not drawn)", "DISCRETE LABEL": "Condition not met"}
{"COMPOUND": "CC1Cc2ccccc2N1S(=O)(=O)c1ccccc1 (stereo not drawn)", "DISCRETE LABEL": "Condition not met"}
{"COMPOUND": "CC1Cc2ccccc2N1S(=O)(=O)c1ccc(Cl)cc1 (stereo not drawn)", "DISCRETE LABEL": "Condition met"}
{"COMPOUND": "CC1Cc2ccccc2N1S(=O)(=O)c1ccccc1[N+](=O)[O-] (stereo not drawn)", "DISCRETE LABEL": "Condition met"}
{"COMPOUND": "O=S(=O)(c1ccc(Br)cc1)N1CCc2ccccc21", "DISCRETE LABEL": "Condition not met"}
{"COMPOUND": "O=[N+]([O-])c1ccccc1S(=O)(=O)N1CCc2ccccc2C1", "DISCRETE LABEL": "Condition met"}
{"COMPOUND": "Cc1cc(C)c(C)c(S(=O)(=O)n2ccc3ccccc32)c1C", "DISCRETE LABEL": "Condition not met"}
{"COMPOUND": "Cc1cc(C)c(C)c(S(=O)(=O)N2CCc3ccccc32)c1C", "DISCRETE LABEL": "Condition met"}
{"COMPOUND": "CC(C)(C)c1ccc(S(=O)(=O)n2ccc3ccccc32)cc1", "DISCRETE LABEL": "Condition not met"}
{"COMPOUND": "CC(=O)c1ccc(S(=O)(=O)N2c3ccccc3CC2C)cc1 (stereo not drawn)", "DISCRETE LABEL": "Condition not met"}
{"COMPOUND": "CC(=O)c1ccc(S(=O)(=O)n2ccc3ccccc32)cc1", "DISCRETE LABEL": "Condition not met"}
{"COMPOUND": "O=[N+]([O-])c1ccccc1S(=O)(=O)N1CCc2ccccc21", "DISCRETE LABEL": "Condition met"}
{"COMPOUND": "Cc1cc(C)c(C)c(S(=O)(=O)n2nnc3ccccc32)c1C", "DISCRETE LABEL": "Condition met"}
{"COMPOUND": "O=[N+]([O-])c1ccccc1S(=O)(=O)n1nnc2ccccc21", "DISCRETE LABEL": "Condition not met"}
{"COMPOUND": "CC1Cc2ccccc2N1S(=O)(=O)c1cccc(C(F)(F)F)c1 (stereo not drawn)", "DISCRETE LABEL": "Condition not met"}
{"COMPOUND": "CC1Cc2ccccc2N1S(=O)(=O)c1ccc(C(C)(C)C)cc1 (stereo not drawn)", "DISCRETE LABEL": "Condition met"}
